# measured_on: hASIC1b (Homo sapiens, UniProt P78348)
# Construct: expressed in transfected cells; host or cells: Xenopus laevis oocytes (cRNA injection)
# Sequence (P78348 1-562 isoform P78348-3): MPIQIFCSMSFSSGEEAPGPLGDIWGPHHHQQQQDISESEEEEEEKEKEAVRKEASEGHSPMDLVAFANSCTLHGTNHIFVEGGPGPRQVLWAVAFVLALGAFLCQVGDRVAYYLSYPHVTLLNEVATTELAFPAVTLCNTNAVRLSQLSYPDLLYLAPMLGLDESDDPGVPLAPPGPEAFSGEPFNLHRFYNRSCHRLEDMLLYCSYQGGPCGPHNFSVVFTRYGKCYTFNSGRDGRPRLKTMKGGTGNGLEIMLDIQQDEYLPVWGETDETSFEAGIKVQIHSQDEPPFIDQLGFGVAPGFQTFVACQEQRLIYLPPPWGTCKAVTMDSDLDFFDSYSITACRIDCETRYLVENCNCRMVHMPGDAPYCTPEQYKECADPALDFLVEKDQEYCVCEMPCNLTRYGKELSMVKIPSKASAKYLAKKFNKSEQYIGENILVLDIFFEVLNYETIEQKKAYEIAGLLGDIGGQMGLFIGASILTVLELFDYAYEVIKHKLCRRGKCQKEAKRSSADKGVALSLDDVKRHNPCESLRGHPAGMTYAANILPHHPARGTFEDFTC
# procedure_summary: TEVC in Xenopus laevis oocytes expressing hASIC1b
# Assay type: cell-based
# protocol_conditions: 1 µM peptide, pH 6 evoked currents, conditioning pH 7.45; mean, n ≥ 5; read-out: I/Icontrol
Positions of bridges follow the written chain, without caps; N, C: chain ends. No end group written: not given here.

substance	remaining activity at 1 µM, %
H-SLKCYQHGAVVTCHRDMKFCYHNIGMPFRNLKLILQGCSSSCSETENNKCCSTDRCNK (disulfide 4-20, 13-38, 42-50, 51-56 (inferred)) [K8A]	165
H-SLKCYQHGKVVTCHRDMKFCYHNIGMPFRNLKLILQGCSSSCSETENNACCSTDRCNK (disulfide 4-20, 13-38, 42-50, 51-56 (inferred)) [K48A]	154
H-SLKCYQHGKVVTCHRDMKFCYHNIGMPFRNLKLILQGCSSSCSETENNKCCSTDRCNA (disulfide 4-20, 13-38, 42-50, 51-56 (inferred)) [K57A]	147
H-SLKCYQAGKVVTCHRDMKFCYHNIGMPFRNLKLILQGCSSSCSETENNKCCSTDRCNK (disulfide 4-20, 13-38, 42-50, 51-56 (inferred)) [H6A]	103
H-SLKCYQHGKVVTCHRDMKFCYHNAGMPFRNLKLILQGCSSSCSETENNKCCSTDRCNK (disulfide 4-20, 13-38, 42-50, 51-56 (inferred)) [I23A]	159
H-SLKCYQHGKVVTCHRDMKFCYHNIGMPFRNLKLILAGCSSSCSETENNKCCSTDRCNK (disulfide 4-20, 13-38, 42-50, 51-56 (inferred)) [Q35A]	168
H-SLKCYQHGKVVTCHRDMKFCYHNIGMPFRALKLILQGCSSSCSETENNKCCSTDRCNK (disulfide 4-20, 13-38, 42-50, 51-56 (inferred)) [N29A]	171
H-SLKCYQHGKVVTCARDMKFCYHNIGMPFRNLKLILQGCSSSCSETENNKCCSTDRCNK (disulfide 4-20, 13-38, 42-50, 51-56 (inferred)) [H13A]	142
H-SLKCYQHGKVVTCHRDAKFCYHNIGMPFRNLKLILQGCSSSCSETENNKCCSTDRCNK (disulfide 4-20, 13-38, 42-50, 51-56 (inferred)) [M16A]	188
H-SLKCYQHGKVVTCHRDMKFCYHNIGMPFRNAKLILQGCSSSCSETENNKCCSTDRCNK (disulfide 4-20, 13-38, 42-50, 51-56 (inferred)) [L30A]	172
H-SLKCYQHGKVVTCHRDMKFCYHNIGMPFRNLKLILQGCSSSCSETENNKCCSTDRCNK (disulfide 4-20, 13-38, 42-50, 51-56 (inferred)) [Ma-3, mambalgin-3]	161
H-SLKCYQHGKVVTCHRDMKFCYHNIGMPFRNLKLILQGCSAACSETENNKCCSTDRCNK (disulfide 4-20, 13-38, 42-50, 51-56 (inferred)) [S39A/S40A]	165
H-SLKCYQHGKVVTCHRDMKFCYHNIGMPFRNLKLILQGCSSSCSETANNKCCSTDRCNK (disulfide 4-20, 13-38, 42-50, 51-56 (inferred)) [E45A]	163
H-SLKCYQHGKVVTCHADMKFCYHNIGMPFRNLKLILQGCSSSCSETENNKCCSTDRCNK (disulfide 4-20, 13-38, 42-50, 51-56 (inferred)) [R14A]	157
H-SLKCYQHGKVVTCHRDMKFCYHNIGMPARNLKLILQGCSSSCSETENNKCCSTDRCNK (disulfide 4-20, 13-38, 42-50, 51-56 (inferred)) [F27A]	111
H-SLKCYQHGKVVTCHRDMKFCYHNIGMPFRNLALILQGCSSSCSETENNKCCSTDRCNK (disulfide 4-20, 13-38, 42-50, 51-56 (inferred)) [K31A]	140
H-SLKCYQHGKVVTCHRDMKFCYHNIGMPFRNLKLIAQGCSSSCSETENNKCCSTDRCNK (disulfide 4-20, 13-38, 42-50, 51-56 (inferred)) [L34A]	116
H-SLKCYQHGKVVTCHRDMKFCYHNIGMPFRNLKLALQGCSSSCSETENNKCCSTDRCNK (disulfide 4-20, 13-38, 42-50, 51-56 (inferred)) [I33A]	133
